# protocol notes: The drug is tested on Bacteroides pectinophilus strain: ATCC43243 for biotransformation. The drug concentrations were measured before and after a 12-h incubation by liquid-chromatography-coupled mass spectrometry (LC–MS)
# study conditions: 2 µM

compound	Bacterial Biotransformation
CC(C)(Oc1ccc(CCNC(=O)c2ccc(Cl)cc2)cc1)C(=O)O [BEZAFIBRATE]	Compound metabolized
NC(CO)(CO)CO.O=C(c1ccccc1)c1ccc2n1CCC2C(=O)O (stereo not drawn) [KETOROLAC TROMETHAMINE]	Compound NOT metabolized
CC(CN(C)C)CN1c2ccccc2CCc2ccccc21.O=C(O)/C=C\C(=O)O (stereo not drawn) [TRIMIPRAMINE MALEATE]	Compound NOT metabolized
CC(C)c1c(CN(C)C(C)Cc2ccccc2)n(C)n(-c2ccccc2)c1=O (stereo not drawn) [FAMPROFAZONE]	Compound NOT metabolized
COc1ccccc1N1CCN(CC(O)COc2cccc3ccccc23)CC1 (stereo not drawn) [NAFTOPIDIL]	Compound NOT metabolized
COc1ccc2c3c1O[C@H]1C[C@@H](O)C=C[C@@]31CCN(C)C2 [GALANTAMINE]	Compound NOT metabolized
COCCCC/C(=N\OCCN)c1ccc(C(F)(F)F)cc1.O=C(O)/C=C\C(=O)O [FLUVOXAMINE MALEATE]	Compound metabolized
NS(=O)(=O)c1cc2c(cc1Cl)N=C(CSCc1ccccc1)NS2(=O)=O [BENZTHIAZIDE]	Compound NOT metabolized
O=C1N=C([O-])NC1(c1ccccc1)c1ccccc1.[Na+] [PHENYTOIN SODIUM]	Compound NOT metabolized
CC(C)NCC(O)COc1ccc(CCOCC2CC2)cc1 (stereo not drawn) [BETAXOLOL]	Compound NOT metabolized
CCCCc1nc(Cl)c(CO)n1Cc1ccc(-c2ccccc2-c2nn[nH]n2)cc1 [LOSARTAN]	Compound NOT metabolized
O=c1[nH]c2ccccc2n1C1CCN(CCCC(c2ccc(F)cc2)c2ccc(F)cc2)CC1 [PIMOZIDE]	Compound NOT metabolized
CCOC(=O)[C@H](CCc1ccccc1)N[C@@H](C)C(=O)N1Cc2ccccc2C[C@H]1C(=O)O	Compound metabolized
CCN(CC)C(=O)C1(c2ccccc2)CC1CN (stereo not drawn)	Compound NOT metabolized
C[C@]12C=CC(=O)C=C1CC[C@@H]1[C@@H]2C(=O)C[C@@]2(C)[C@H]1CC[C@]2(O)C(=O)CO [PREDNISONE]	Compound NOT metabolized
CC1=C(CC(=O)O)c2cc(F)ccc2/C1=C\c1ccc([S+](C)[O-])cc1 (stereo not drawn)	Compound NOT metabolized
C[C@@H](CO)NC(=O)[C@@H]1C=C2c3cccc4[nH]cc(c34)C[C@H]2N(C)C1.O=C(O)/C=C\C(=O)O [ERGONOVINE MALEATE]	Compound metabolized
O=C(CCCN1CCC(O)(c2ccc(Cl)cc2)CC1)c1ccc(F)cc1 [HALOPERIDOL]	Compound NOT metabolized
N#Cc1ccc2[nH]cc(CCCCN3CCN(c4ccc5oc(C(N)=O)cc5c4)CC3)c2c1 [VILAZODONE]	Compound NOT metabolized
C[C@@H](c1ncncc1F)[C@](O)(Cn1cncn1)c1ccc(F)cc1F [VORICONAZOLE]	Compound NOT metabolized
O=C1NCC2(CCN(CCc3ccccc3)CC2)O1 [FENSPIRIDE]	Compound NOT metabolized
CCCCCNC(=N)N/N=C/c1c[nH]c2ccc(OC)cc12.O=C(O)/C=C\C(=O)O [TEGASEROD MALEATE]	Compound NOT metabolized
CCc1nn(CCCN2CCN(c3cccc(Cl)c3)CC2)c(=O)n1CCOc1ccccc1 [NEFAZODONE]	Compound NOT metabolized
